Reference for the values: ChEMBL document CHEMBL1201862

Tested System: Calpain-2 catalytic subunit (Sus scrofa, UniProt P43367)
Sequence (P43367 whole entry): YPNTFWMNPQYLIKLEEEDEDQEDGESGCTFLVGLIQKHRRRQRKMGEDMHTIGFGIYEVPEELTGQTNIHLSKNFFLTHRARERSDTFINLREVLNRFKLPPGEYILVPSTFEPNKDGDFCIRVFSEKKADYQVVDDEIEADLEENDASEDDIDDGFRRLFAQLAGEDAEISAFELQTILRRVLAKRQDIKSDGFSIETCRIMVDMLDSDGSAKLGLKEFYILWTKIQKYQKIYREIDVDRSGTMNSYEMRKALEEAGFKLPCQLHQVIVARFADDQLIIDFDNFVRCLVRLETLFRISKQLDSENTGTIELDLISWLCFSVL
Method Notes: pig calpain II inhibitor potency, dose response, biochemical, fluorogenic peptide substrate (AID 1420)
Type: functional
The source made the active and inactive calls.
Hi there, I'd appreciate the recorded IC50 for every entry that follows.

INPUT: // query IC50 value for entry O=C(Nc1ccc2c(c1)OCO2)c1c(F)c(F)c(F)c(F)c1F
OUTPUT: > 50 µM (not active)

INPUT: // query IC50 value for entry O=C(CSc1nc2ccccc2c(=O)n1-c1ccccc1)N1CCc2ccccc21
OUTPUT: 16.7 µM (not active)

INPUT: // query IC50 value for entry CCCCCCCCCn1c2c(c(=N)c3c1CCC3)CCCC2
OUTPUT: 4.68 µM (active)

INPUT: // query IC50 value for entry Cc1ccc(-c2nn(-c3ccccc3)cc2CNCc2ccccc2)cc1
OUTPUT: > 50 µM (not active)

INPUT: // query IC50 value for entry COc1cccc(CNC(=O)CN=C(S)N(Cc2ccccc2)Cc2ccccc2F)c1
OUTPUT: 6.84 µM (not active)

INPUT: // query IC50 value for entry CCOC(=O)C1CCN(c2c([N+](=O)[O-])c(C(Cl)Cl)nn2-c2ccccc2)CC1
OUTPUT: 8.97 µM (not active)

INPUT: // query IC50 value for entry CCC(=O)Nc1ccc(Cl)c(NC(=S)NC(=O)c2cc3ccccc3o2)c1
OUTPUT: 25.7 µM (not active)

INPUT: // query IC50 value for entry Cc1ccc2cc(C#N)c(SCC(=O)NNC(=O)Cc3ccccc3)nc2c1
OUTPUT: 23.7 µM (not active)

INPUT: // query IC50 value for entry Oc1c(Cl)cc(Cl)cc1Sc1cc(Cl)cc(Cl)c1O
OUTPUT: 4.75 µM (not active)

INPUT: // query IC50 value for entry COc1cccc(/C=C(/C(=O)OCC(=O)NC2CCCC(C)C2C)c2ccccc2)c1 (stereo unspecified)
OUTPUT: 11.6 µM (not active)

INPUT: // query IC50 value for entry Cc1ccc(Cl)cc1N(Cc1ccc(C(=O)NCc2cccnc2)cc1)S(=O)(=O)c1ccccc1
OUTPUT: 7.55 µM (not active)

----------
Tested System: Sentrin-specific protease 7 (Homo sapiens, UniProt Q9BQF6)
Sequence (Q9BQF6 whole entry): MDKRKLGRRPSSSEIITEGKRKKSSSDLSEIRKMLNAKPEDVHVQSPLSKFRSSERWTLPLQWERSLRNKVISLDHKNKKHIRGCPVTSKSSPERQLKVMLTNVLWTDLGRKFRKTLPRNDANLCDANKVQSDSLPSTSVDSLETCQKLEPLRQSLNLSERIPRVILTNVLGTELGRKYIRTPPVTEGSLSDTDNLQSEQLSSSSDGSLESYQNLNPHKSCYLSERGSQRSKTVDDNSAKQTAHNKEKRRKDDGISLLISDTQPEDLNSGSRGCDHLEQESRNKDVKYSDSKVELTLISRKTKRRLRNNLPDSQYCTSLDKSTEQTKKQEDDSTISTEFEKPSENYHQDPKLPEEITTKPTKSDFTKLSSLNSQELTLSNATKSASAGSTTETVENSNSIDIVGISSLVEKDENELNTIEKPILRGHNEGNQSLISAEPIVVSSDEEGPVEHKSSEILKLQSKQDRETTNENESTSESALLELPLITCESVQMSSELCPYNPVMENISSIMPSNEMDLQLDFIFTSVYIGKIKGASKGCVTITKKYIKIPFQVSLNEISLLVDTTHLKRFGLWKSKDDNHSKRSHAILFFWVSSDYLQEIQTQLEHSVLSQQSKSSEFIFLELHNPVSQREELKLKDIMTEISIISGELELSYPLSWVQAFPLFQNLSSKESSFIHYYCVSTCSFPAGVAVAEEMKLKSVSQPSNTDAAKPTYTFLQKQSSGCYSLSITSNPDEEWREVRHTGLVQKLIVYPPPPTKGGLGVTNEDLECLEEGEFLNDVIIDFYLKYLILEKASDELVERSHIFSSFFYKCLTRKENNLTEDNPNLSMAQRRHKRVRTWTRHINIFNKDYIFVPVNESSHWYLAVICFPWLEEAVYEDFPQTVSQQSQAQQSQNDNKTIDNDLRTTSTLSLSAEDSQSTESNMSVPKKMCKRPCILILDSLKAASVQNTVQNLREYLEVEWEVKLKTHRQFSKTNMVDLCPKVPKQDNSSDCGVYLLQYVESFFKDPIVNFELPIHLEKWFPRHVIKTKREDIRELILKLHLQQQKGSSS
Method Notes: SENP7 protease inhibitors, SAR follow-up, biochemical, luminescence (AID 504497)
Assay type: functional
Calls of active or inactive are those of the source.
Hi there, I'd appreciate the recorded IC50 for every entry that follows.

INPUT: // query IC50 value for entry CCCCc1ccc2nc(NC(=O)c3oc4ccccc4c3C)sc2c1
OUTPUT: > 99 µM (inactive)

INPUT: // query IC50 value for entry CCOc1ccc2nc(NC(=O)Cn3c(=O)oc4ccc(C(=O)N5CCCC5)cc43)sc2c1
OUTPUT: > 99 µM (inactive)

INPUT: // query IC50 value for entry Cc1[nH]c(=O)sc1S(=O)(=O)N1CCN(C(=O)c2sc3cc(F)ccc3c2Cl)CC1
OUTPUT: > 99 µM (inactive)

INPUT: // query IC50 value for entry CC(=O)Nc1ccc(/C=C/c2noc(-c3ccccc3O)n2)cc1
OUTPUT: 7.2 µM (active)

INPUT: // query IC50 value for entry CCCc1ccccc1-c1nc(/C=C/c2ccccc2)no1
OUTPUT: > 99 µM (inactive)

INPUT: // query IC50 value for entry O=C(NNc1cc(N2CCCC2)nc(N2CCCC2)n1)c1ccc([N+](=O)[O-])cc1
OUTPUT: 2.43 µM (active)

INPUT: // query IC50 value for entry CN(C)CCN(C(=O)c1ccc(Cl)s1)c1nc2ccc(F)cc2s1
OUTPUT: > 99 µM (inactive)
